Please go through the items and note down their IC50.
- Measurement target: CYP3A4 (Homo sapiens)
- Construct: 0.1 mg/mL human liver microsomes; from tissue; host or cells: human liver microsomes
- Sequence (P08684 whole entry): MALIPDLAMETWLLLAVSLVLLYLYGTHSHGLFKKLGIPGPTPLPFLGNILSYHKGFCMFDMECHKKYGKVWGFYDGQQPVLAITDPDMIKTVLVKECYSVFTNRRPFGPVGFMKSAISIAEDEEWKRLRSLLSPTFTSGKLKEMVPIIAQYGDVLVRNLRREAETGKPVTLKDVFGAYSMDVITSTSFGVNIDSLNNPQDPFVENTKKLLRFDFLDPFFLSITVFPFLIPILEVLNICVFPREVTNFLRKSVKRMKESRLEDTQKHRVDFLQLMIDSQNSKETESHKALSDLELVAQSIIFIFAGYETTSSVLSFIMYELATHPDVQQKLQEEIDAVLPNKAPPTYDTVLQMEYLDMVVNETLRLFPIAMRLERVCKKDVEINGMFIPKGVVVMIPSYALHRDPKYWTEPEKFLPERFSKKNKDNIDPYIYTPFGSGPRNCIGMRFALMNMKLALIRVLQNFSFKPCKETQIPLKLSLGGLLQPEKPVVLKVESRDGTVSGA
- Measurement protocol: IC50 against CYP3A4 by inhibition of testosterone metabolism in human liver microsomes
- Format: biochemical
- Condition notes: 0.1 mg/mL human liver microsomes, 25 μM testosterone, 1 mM NADPH, 6-β-OH-testosterone production, eight minutes; read-out: IC50, μM (HLM, testosterone)
Give just the numeric value; µM need not be written.

Looking up `CS(=O)(=O)CCN1CCN(C(=O)Cn2nc(-c3ccncc3)cc2Cc2ccc(F)cc2)CC1` , I found its IC50 recorded as 0.037

get_value(item= `CN(C)[C@@H]1CCN(C(=O)Cn2nc(-c3ccncc3)cc2Cc2ccc(F)cc2)C1` , readout=IC50) returns 0.026

What the record says about `CC(C)NC1CCN(C(=O)Cn2nc(-c3ccncc3)cc2Cc2ccc(F)cc2)CC1` : IC50 is 0.056

Field IC50 (entry CC(NC(=O)Cn1nc(-c2ccncc2)cc1Cc1ccc(F)cc1)c1cnn(C)c1 (centres unmarked) ) reads 0.028

Value of IC50 reported for the compound `CCOC(=O)N(C)C1CCN(C(=O)Cn2nc(-c3ccncc3)cc2Cc2ccc(F)cc2)CC1` is 0.011

For `Cc1nnc(Cn2nc(-c3ccncc3)cc2Cc2ccc(F)cc2)o1` the compound record lists IC50 as 0.0305

The value of IC50 measured for the compound CC(Cc1cnccn1)NC(=O)Cn1nc(-c2ccncc2)cc1Cc1ccc(F)cc1 (centres unmarked) turned out to be 0.025

====

- Measurement target: recombinant CYP3A4-b5 enzyme (Baculosomes®) (Homo sapiens, UniProt P08684)
- Construct: purchased Invitrogen (Carlsbad, Calif.)
- Measurement protocol: Kiapp against recombinant CYP3A4 enzyme (Baculosomes), BFC substrate
- Type: biochemical
- Condition notes: recombinant CYP3A4-b5 (Invitrogen), 5 uM BFC, 200 uM NADPH, pre-incubation at least 30 minutes, pH 7.0, room temperature
Friendly reminder: Ki below 0.08 µM is 1, at or above is -1.

In: Does the reported Ki of the following molecule sit strictly below 0.08 µM? O=C(Cn1nc(-c2ccncc2)cc1Cc1ccc(F)cc1)NCCc1cnccn1 [Example 78]
Out: -1

In: Confirm or reject: Ki of O=C(Cn1nc(-c2ccncc2)cc1Cc1ccc(F)cc1)N1CCC(N2CCCCC2=O)CC1 [Example 136] lies strictly below 0.08 µM
Out: 1

In: # TODO verify Ki < 0.08 µM strictly for this molecule: O=C(Cn1nc(-c2ccncc2)cc1Cc1ccc(F)cc1)NCc1ncc(F)cn1 [Example 81]
Out: -1

In: Ki under 0.08 µM? Item: CC(C)NC1CCN(C(=O)Cn2nc(-c3ccncc3)cc2Cc2ccc(F)cc2)CC1 [Example 9]
Out: -1

In: is_below(Ki, 0.08 µM) for CCC(=O)NC1CCN(C(=O)Cn2nc(-c3ccncc3)cc2Cc2ccc(F)cc2)CC1 [Example 101] ?
Out: -1

In: State whether 0.08 µM exceeds Ki recorded for CC(C)C(=O)NC1CCN(C(=O)Cn2nc(-c3ccncc3)cc2Cc2ccc(F)cc2)CC1 [Example 104] .
Out: -1

In: I'd appreciate it if you could check whether CN(C(=O)C1CC1)C1CCN(C(=O)Cn2nc(-c3ccncc3)cc2Cc2ccc(F)cc2)CC1 [Example 13] has Ki smaller than 0.08 µM.
Out: 1

In: Threshold test, Ki < 0.08 µM: CN(C(=O)Cn1nc(-c2ccncc2)cc1Cc1ccc(F)cc1)[C@H]1CC[C@H](O)CC1 [Example 83]
Out: 1

From: patent US7919488B2
